Test: Study VX-222-102 Part A: VX-222 for 3 days in HCV infected subjects (PK, safety)
Assay type: in vivo, human
Experimental conditions: human, in vivo, 250 mg, 250 mg b.i.d., Day 1, HCV infected subjects; read-out: tmax Median
Reported property: Tmax (h)
// units = h; emit number, no label

Ask | Which Tmax reading was recorded for the compound CC1CCC(C(=O)N(c2cc(C#CC(C)(C)C)sc2C(=O)O)C2CCC(O)CC2)CC1 (stereo not shown) ?
Reply | 6

* * *

Test: Study VX-222-002: combination treatment with VX-222 and VX-950 in healthy subjects (PK, safety)
Experimental conditions: human, plasma, oral, T1/2, VX-222 400 mg BID with VX-950 1125 mg BID, Day 37, healthy subjects, fed
Reported property: half-life (h)
// units = h; emit number, no label

Ask | Which half-life reading was recorded for the molecule CC1CCC(C(=O)N(c2cc(C#CC(C)(C)C)sc2C(=O)O)C2CCC(O)CC2)CC1 (stereo not shown) ?
Reply | 5.4

* * *

Test: Study VX-222-002: combination treatment with VX-222 and VX-950 in healthy subjects (PK, safety)
Experimental conditions: human, plasma, oral, 400 mg, AUC0-12, VX-222 400 mg BID alone, Day 10, healthy subjects, fed; geometric mean (CV %)
Reported property: AUC(0-t) (ng·h/mL)
// units = ng·h/mL; emit number, no label

Ask | Which AUC(0-t) reading was recorded for the molecule CC1CCC(C(=O)N(c2cc(C#CC(C)(C)C)sc2C(=O)O)C2CCC(O)CC2)CC1 (stereo not shown) ?
Reply | 8560

* * *

Test: Study VX-222-102 Part A: VX-222 for 3 days in HCV infected subjects (PK, safety)
Type: in vivo, human
Experimental conditions: human, in vivo, 500 mg, 500 mg b.i.d., Day 3, HCV infected subjects; read-out: AUC0-12 hr Geometric Mean
Description: In Part A of Study 102 subjects were randomized to VX-222 or placebo in a 6:2 (VX-222: placebo) allocation ratio to either Cohort 1, Cohort 2, Cohort 3, or Cohort 4. Subjects enrolled in Cohort 1, Cohort 2, and Cohort 3 were administered 250 mg, 500 mf, or 750 mg VX-222 or placebo twice daily (b.i.d.) for 3 days, respectively. Subjects enrolled in Cohort 4 were administered 1,500 mg VX-222 or placebo once daily (qd) for 3 days. […]
Reported property: AUC(0-t)
Respond with a number, then the unit of measure.

Ask | Which AUC(0-t) reading was recorded for the compound CC1CCC(C(=O)N(c2cc(C#CC(C)(C)C)sc2C(=O)O)C2CCC(O)CC2)CC1 (stereo not shown) ?
Reply | 29800 ng·h/mL

* * *

Test: Study VX-222-102 Part A: VX-222 for 3 days in HCV infected subjects (PK, safety)
Format: in vivo, human
Experimental conditions: human, in vivo, 500 mg, 500 mg b.i.d., Day 3, HCV infected subjects; read-out: Cmax Geometric Mean
Reported property: Cmax (ng/mL)
// units = ng/mL; emit number, no label

Ask | Which Cmax reading was recorded for the compound CC1CCC(C(=O)N(c2cc(C#CC(C)(C)C)sc2C(=O)O)C2CCC(O)CC2)CC1 (stereo not shown) ?
Reply | 5040

* * *

Test: Study VX-222-102 Part A: VX-222 for 3 days in HCV infected subjects (PK, safety)
Format: in vivo, human
Experimental conditions: human, in vivo, 250 mg, 250 mg b.i.d., Day 1, HCV infected subjects; read-out: Cmax Geometric Mean
Reported property: Cmax (ng/mL)
// units = ng/mL; emit number, no label

Ask | Which Cmax reading was recorded for the compound CC1CCC(C(=O)N(c2cc(C#CC(C)(C)C)sc2C(=O)O)C2CCC(O)CC2)CC1 (stereo not shown) [VX-222] ?
Reply | 1810
